Consider the following compounds; for each one, report its IC50.
Experiment: Biochemical Assay: A variety of Ras proteins may be inhibited by compounds of the present invention (e.g., K-Ras, N-Ras, H-Ras, and mutants thereof at positions 12, 13 and 61, such as G12C, G12D, G12V, G12S, G13C, G13D, and Q61L, and others described herein). The purpose of this biochemical assay is to measure the ability of test compounds to covalently label nucleotide-loaded K-Ras isoforms. […] The sample is incubated at 25? C. for a time period of up to 24 hours prior to quenching by the addition of 10 uL of 5% Formic Acid. Quenched samples are centrifuged at 15000 rpm for 15 minutes in a benchtop centrifuge before injecting a 10 uL aliquot onto a reverse phase C4 column and eluting into the mass spectrometer with an increasing acetonitrile gradient in the mobile phase. Analysis of raw data may be carried out using Waters MassLynx MS software, with % bound calculated from the deconvoluted protein peaks for labeled and unlabeled K-Ras.

Item C=CC(=O)N1CC(OCC(C(=O)N[C@H]2Cc3cccc(c3)-c3ccc4c(c3)c(c(-c3cccnc3C(C)OC)n4CC(F)(F)F)CC(C)(C)COC(=O)[C@@H]3CCCN(N3)C2=O)C(C)C)C1 (some centres undefined) has what recorded IC50? > 10 µM

Item COC(C)c1ncccc1-c1c2c3cc(ccc3n1CC(F)(F)F)-c1cc(cc(C(F)F)c1)C[C@H](NC(=O)[C@@H](COC1CN(C(=O)C#CC(C)(C)N(C)C)C1)C(C)C)C(=O)N1CCC[C@H](N1)C(=O)OCC(C)(C)C2 (some centres undefined) has what recorded IC50? > 10 µM

---

Assay: Biochemical Assay: A variety of Ras proteins may be inhibited by compounds of the present invention (e.g., K-Ras, N-Ras, H-Ras, and mutants thereof at positions 12, 13 and 61, such as G12C, G12D, G12V, G12S, G13C, G13D, and Q61L, and others described herein). The purpose of this biochemical assay is to measure the ability of test compounds to covalently label nucleotide-loaded K-Ras isoforms. […] The sample is incubated at 25? C. for a time period of up to 24 hours prior to quenching by the addition of 10 uL of 5% Formic Acid. Quenched samples are centrifuged at 15000 rpm for 15 minutes in a benchtop centrifuge before injecting a 10 uL aliquot onto a reverse phase C4 column and eluting into the mass spectrometer with an increasing acetonitrile gradient in the mobile phase. Analysis of raw data may be carried out using Waters MassLynx MS software, with % bound calculated from the deconvoluted protein peaks for labeled and unlabeled K-Ras.
endpoint: IC50

Item CCn1c(-c2cccnc2C(C)OC)c2c3cc(ccc31)-c1cccc(c1)C[C@H](NC(=O)CCOC1CN(C(=O)C#CC(C)(C)N(C)C)C1)C(=O)N1CCC[C@H](N1)C(=O)OCC(C)(C)C2 (stereo not given in full) has what recorded IC50? > 10 µM

---

Consider the following molecules; for each one, report its IC50.
Experiment: Biochemical Assay: A variety of Ras proteins may be inhibited by compounds of the present invention (e.g., K-Ras, N-Ras, H-Ras, and mutants thereof at positions 12, 13 and 61, such as G12C, G12D, G12V, G12S, G13C, G13D, and Q61L, and others described herein). The purpose of this biochemical assay is to measure the ability of test compounds to covalently label nucleotide-loaded K-Ras isoforms. […] The sample is incubated at 25? C. for a time period of up to 24 hours prior to quenching by the addition of 10 uL of 5% Formic Acid. Quenched samples are centrifuged at 15000 rpm for 15 minutes in a benchtop centrifuge before injecting a 10 uL aliquot onto a reverse phase C4 column and eluting into the mass spectrometer with an increasing acetonitrile gradient in the mobile phase. Analysis of raw data may be carried out using Waters MassLynx MS software, with % bound calculated from the deconvoluted protein peaks for labeled and unlabeled K-Ras.

Item CCn1c(-c2cccnc2C(C)OC)c2c3cc(ccc31)-c1cccc(c1)C[C@H](NC(=O)CCOC1CN(C(=O)C#CC(C)(C)N(C)C)C1)C(=O)N1CCC[C@H](N1)C(=O)OCC(C)(C)C2 (stereo partly drawn) has what recorded IC50? > 10 µM

Item CCn1c(-c2cccnc2C(C)OC)c2c3cc(ccc31)N1CCC[C@@H](C[C@H](NC(=O)[C@@H](COC3CN(C(=O)C#CC(C)(C)N(C)C)C3)C(C)C)C(=O)N3CCC[C@H](N3)C(=O)OCC(C)(C)C2)C1 (stereo partly drawn) has what recorded IC50? > 10 µM
